Test system: A549
Experiment: Cytotoxicity against human A549 cells after 48 hrs by trypan blue assay
Type: functional, cell-based
Settings: A549, 48 h

chem-smiles | target-or-test-system | unit-annotation | IC50
Cc1cc(C(=O)c2ccc(Br)cc2)ccc1OCC(=O)Nc1ccccc1NC(=O)COc1ccc(C(=O)c2ccccc2C)cc1C | A549 | µM | 20
